Molecular target: JAK1 (Homo sapiens (Human))
Sequence (P23458 whole entry): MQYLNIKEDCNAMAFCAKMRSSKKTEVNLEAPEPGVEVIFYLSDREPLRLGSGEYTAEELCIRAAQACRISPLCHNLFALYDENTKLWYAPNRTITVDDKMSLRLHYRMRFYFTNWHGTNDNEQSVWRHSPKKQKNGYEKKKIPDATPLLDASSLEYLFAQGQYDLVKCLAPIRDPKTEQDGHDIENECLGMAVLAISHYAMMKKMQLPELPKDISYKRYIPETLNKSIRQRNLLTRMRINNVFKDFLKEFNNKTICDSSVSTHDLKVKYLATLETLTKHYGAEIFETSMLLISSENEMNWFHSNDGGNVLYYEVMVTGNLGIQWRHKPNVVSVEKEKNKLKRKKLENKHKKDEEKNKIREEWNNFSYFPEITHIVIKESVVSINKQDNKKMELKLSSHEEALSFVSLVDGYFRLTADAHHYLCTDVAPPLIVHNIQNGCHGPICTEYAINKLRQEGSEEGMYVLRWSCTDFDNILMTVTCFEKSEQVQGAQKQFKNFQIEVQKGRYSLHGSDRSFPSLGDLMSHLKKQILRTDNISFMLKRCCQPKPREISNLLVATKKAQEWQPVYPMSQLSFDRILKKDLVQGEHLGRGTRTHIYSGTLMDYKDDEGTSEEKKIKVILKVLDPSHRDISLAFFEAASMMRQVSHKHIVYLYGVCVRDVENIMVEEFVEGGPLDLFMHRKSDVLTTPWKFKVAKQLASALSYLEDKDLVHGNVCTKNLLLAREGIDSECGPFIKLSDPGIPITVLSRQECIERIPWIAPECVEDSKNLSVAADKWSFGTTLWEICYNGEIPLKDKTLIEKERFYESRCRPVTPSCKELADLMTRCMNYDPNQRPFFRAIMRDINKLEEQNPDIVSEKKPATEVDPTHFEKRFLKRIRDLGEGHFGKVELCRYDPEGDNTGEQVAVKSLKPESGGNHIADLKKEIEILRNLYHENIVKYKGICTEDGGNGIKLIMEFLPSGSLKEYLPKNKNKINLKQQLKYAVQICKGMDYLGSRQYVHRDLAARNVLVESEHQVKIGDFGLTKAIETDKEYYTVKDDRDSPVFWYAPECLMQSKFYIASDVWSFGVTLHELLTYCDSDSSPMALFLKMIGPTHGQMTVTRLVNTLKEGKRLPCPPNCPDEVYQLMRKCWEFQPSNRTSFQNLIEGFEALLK
Experiment: JAK1 LANCE Ultra kinase assay
Format: biochemical
Conditions: ratio of IC50 JAK2 to IC50 JAK1
measure.name: JAK2/JAK1

1) CN(c1c(C#N)cnc2[nH]ccc12)[C@H]1C[C@@H]2CN(S(=O)(=O)CCC(F)(F)F)C[C@@H]2C1: 5.89
2) CCC1CN(C(=O)NCC2CC2)CC1Nc1c(C#N)cnc2[nH]ccc12 (stereo not shown): 7.75
3) C[C@@H]1CCN(C(=O)CC#N)C[C@@H]1N(C)c1c(C#N)cnc2[nH]ccc12: 7.70
4) C[C@H](O)C(=O)N1C[C@H]2C[C@H](N(C)c3c(C#N)cnc4[nH]ccc34)C[C@H]2C1: 18.85
5) C[C@@H]1CN(C(=O)NCC(F)(F)F)C[C@@H]1Nc1c(C#N)cnc2[nH]ccc12: 6.00
6) CCOc1nc(NC(=O)N2C[C@H]3C[C@H](N(C)c4c(C#N)cnc5[nH]ccc45)C[C@H]3C2)no1: 8.60
7) CN(c1c(C#N)cnc2[nH]ccc12)[C@H]1C[C@@H]2CN(C(=O)Nc3nc(OCC(C)(C)O)ns3)C[C@@H]2C1: 8.47
8) CC[C@@H]1CN(C(=O)NC2CC2)C[C@@H]1Nc1c(C#N)cnc2[nH]ccc12 (relative stereo): 5.51
9) CC[C@@H]1CC(NS(=O)(=O)c2cccc(C(F)(F)F)c2)C[C@@H]1Nc1c(C#N)cnc2[nH]ccc12 (stereo partly shown): 6.25
10) CN(C)Cc1nsc(NC(=O)N2C[C@H]3C[C@H](Nc4c(C#N)cnc5[nH]ccc45)C[C@H]3C2)n1: 6.83
